Recorded measurements of relative viability, one per entry
- Tested on: MES-SA
- method description: relative viability vs DMSO control (72 h) (fraction); higher = more viable cells
- measurement context: 0.01372 µM
# print the numeric value only

Examples from the recorded data:
Query: Under MES-SA: relative viability value of Cc1cc(F)c(C(=O)Nc2cccc(-c3nncn3C(C)C)n2)cc1-n1cnc(C2CC2)c1 [Selonsertib] ?
Reply: 0.895

Query: Value wanted: relative viability (MES-SA) of entry COc1cc2ncnc(Nc3ccc(F)c(Cl)c3)c2cc1OCCCN1CCOCC1 [Gefitinib]
Reply: 0.937

Query: Record CCS(=O)(=O)N1CC(CC#N)(n2cc(-c3ncnc4[nH]ccc34)cn2)C1 [Baricitinib] : what is its relative viability with MES-SA?
Reply: 0.95

Now let's try a different one.
Query: Provide the documented relative viability with MES-SA as the system for CCOc1cc2ncc(C#N)c(Nc3ccc(OCc4ccccn4)c(Cl)c3)c2cc1NC(=O)/C=C/CN(C)C [Neratinib]
Reply: 0.897

---

- Tested on: SW684
- method description: relative viability vs DMSO control (72 h) (fraction); higher = more viable cells
- measurement context: 0.04115 µM
# relative viability listing for each entry below
// print number alone

Example results:
Query: Reported relative viability, compound Cc1c2oc3c(C)ccc(C(=O)N[C@@H]4C(=O)N[C@H](C(C)C)C(=O)N5CCC[C@H]5C(=O)N(C)CC(=O)N(C)[C@@H](C(C)C)C(=O)O[C@@H]4C)c3nc-2c(C(=O)N[C@@H]2C(=O)N[C@H](C(C)C)C(=O)N3CCC[C@H]3C(=O)N(C)CC(=O)N(C)[C@@H](C(C)C)C(=O)O[C@@H]2C)c(N)c1=O : ____
Reply: 0.687

Query: Report relative viability for O=C(c1ccc(F)c(F)c1Nc1ccc(I)cc1F)N1CC(O)([C@@H]2CCCCN2)C1 please.
Reply: 1.06

Query: Item CNC(=O)c1cccc2cc(Oc3ccnc4cc(OCC5(N)CC5)c(OC)cc34)ccc12 has what recorded relative viability?
Reply: 1.21

Please turn your attention to the following entry.
Query: Value lookup for relative viability; key = COc1cc2ncnc(Nc3ccc(F)c(Cl)c3)c2cc1OCCCN1CCOCC1
Reply: 1.15

---

- Tested on: G401
- method description: relative viability vs DMSO control (72 h) (fraction); higher = more viable cells
- measurement context: 3.333 µM
Note to self: relative viability under 0.5 means TRUE, ties and anything higher get FALSE.

Study these solved cases before continuing.
Query: In plain terms, does CCS(=O)(=O)N1CC(CC#N)(n2cc(-c3ncnc4[nH]ccc34)cn2)C1 [Baricitinib] come in under 0.5 for relative viability?
Reply: FALSE

Query: Threshold test, relative viability < 0.5: CC(=O)c1c(C)c2cnc(Nc3ccc(N4CCNCC4)cn3)nc2n(C2CCCC2)c1=O [Palbociclib]
Reply: FALSE

Query: Please check: relative viability for Cc1c2oc3c(C)ccc(C(=O)N[C@@H]4C(=O)N[C@H](C(C)C)C(=O)N5CCC[C@H]5C(=O)N(C)CC(=O)N(C)[C@@H](C(C)C)C(=O)O[C@@H]4C)c3nc-2c(C(=O)N[C@@H]2C(=O)N[C@H](C(C)C)C(=O)N3CCC[C@H]3C(=O)N(C)CC(=O)N(C)[C@@H](C(C)C)C(=O)O[C@@H]2C)c(N)c1=O [Dactinomycin] , strictly under 0.5 or not?
Reply: TRUE

Further cases:
Query: is_below(relative viability, 0.5) for COC(=O)c1ccc2c(c1)NC(=O)/C2=C(\Nc1ccc(N(C)C(=O)CN2CCN(C)CC2)cc1)c1ccccc1 [Nintedanib] ?
Reply: TRUE

Query: I wonder whether Cn1cnc2c(F)c(Nc3ccc(Br)cc3Cl)c(C(=O)NOCCO)cc21 [Selumetinib] has relative viability below 0.5. Can you tell?
Reply: FALSE

Query: Hello, is relative viability of the following molecule strictly smaller than 0.5? Cc1cc(F)c(C(=O)Nc2cccc(-c3nncn3C(C)C)n2)cc1-n1cnc(C2CC2)c1 [Selonsertib]
Reply: FALSE

All figures here come from the supplement of paper PMC10883282.
